- Tested on: K98450-129-R-PDC multicell spheroids, viability;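 also: spheroids exposed to agents for seven days before read-out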
- procedure text: Anticancer human tumor K98450-129-R-PDC patient-derived colon adenocarcinoma cell line growth inhibition [PI3K]
- assay context: second compound 0.0316 µM; first compound 0.0316 µM; active compounds read low
readout name: viability, T/C (%)
// return numeric value only (unit: %, not printed)

Data request: Dear colleague, I am looking for the recorded viability, T/C of the following compound: CNC(=O)c1ccc(N2C(=S)N(c3ccc(C#N)c(C(F)(F)F)c3)C(=O)C2(C)C)cc1F + COc1c(OCCCN2CCOCC2)ccc2c3n(c(=NC(=O)c4cnc(N)nc4)nc12)CCN3
Data returned: 96.4

Data request: Entry under review: CCN1CCN(Cc2ccc(Nc3ncc(F)c(-c4cc(F)c5nc(C)n(C(C)C)c5c4)n3)nc2)CC1 + Cc1nc(NC(=O)N2CCCC2C(N)=O)sc1-c1ccnc(C(C)(C)C(F)(F)F)c1 . Reported viability, T/C?
Data returned: 106

Data request: Give the measured viability, T/C of CC(C)n1nc(-c2ccc3oc(N)nc3c2)c2c(N)ncnc21 + Cc1nc(NC(=O)N2CCCC2C(N)=O)sc1-c1ccnc(C(C)(C)C(F)(F)F)c1 .
Data returned: 87.2

Data request: For the compound shown here, CC(=O)c1c(C)c2cnc(Nc3ccc(N4CCNCC4)cn3)nc2n(C2CCCC2)c1=O + CC(Nc1ncnc2nc[nH]c12)c1cc2cccc(Cl)c2c(=O)n1-c1ccccc1 , give the reported viability, T/C.
Data returned: 100

Data request: Requested field: viability, T/C. Item: CCCS(=O)(=O)Nc1ccc(F)c(C(=O)c2c[nH]c3ncc(-c4ccc(Cl)cc4)cc23)c1F + CC(Nc1ncnc2nc[nH]c12)c1cc2cccc(Cl)c2c(=O)n1-c1ccccc1
Data returned: 118

Data request: // lookup viability, T/C for CC(Cn1ccc(-c2ccc(C#N)c(Cl)c2)n1)NC(=O)c1cc(C(C)O)[nH]n1 (stereo unspecified) + CC(Nc1ccc2c(c1)OCCn1cc(N3C(=O)OCC3C(F)F)nc1-2)C(N)=O
Data returned: 102

Data request: Which measured viability, T/C value corresponds to C[C@@H](NC(=O)c1ncnc(N)c1Cl)c1ncc(C(=O)Nc2cc(C(F)(F)F)c(Cl)cn2)s1 + CC(Nc1ncnc2nc[nH]c12)c1cc2cccc(Cl)c2c(=O)n1-c1ccccc1 ?
Data returned: 113

Data request: // lookup viability, T/C for CCN1CCN(Cc2ccc(Nc3ncc(F)c(-c4cc(F)c5nc(C)n(C(C)C)c5c4)n3)nc2)CC1 + COc1c(OCCCN2CCOCC2)ccc2c3n(c(=NC(=O)c4cnc(N)nc4)nc12)CCN3
Data returned: 81.9

Data request: # viability, T/C lookup, item C=CC(=O)N1CCN(c2nc(=O)n(-c3c(C)ccnc3C(C)C)c3nc(-c4c(O)cccc4F)c(F)cc23)C(C)C1 (stereo unspecified) + COc1c(OCCCN2CCOCC2)ccc2c3n(c(=NC(=O)c4cnc(N)nc4)nc12)CCN3
Data returned: 116

Data request: # viability, T/C lookup, item CC(C)NCC(C(=O)N1CCN(c2ncnc3c2C(C)CC3O)CC1)c1ccc(Cl)cc1 (stereo unspecified) + Cc1nc(NC(=O)N2CCCC2C(N)=O)sc1-c1ccnc(C(C)(C)C(F)(F)F)c1
Data returned: 104

Data request: Which viability, T/C reading was recorded for the compound CCN1CCN(Cc2ccc(Nc3ncc(F)c(-c4cc(F)c5nc(C)n(C(C)C)c5c4)n3)nc2)CC1 + CC(Nc1ncnc2nc[nH]c12)c1cc2cccc(Cl)c2c(=O)n1-c1ccccc1 ?
Data returned: 109
